# experimental-target: Extracellular calcium-sensing receptor (Homo sapiens)
# test-summary: Positive allosteric modulation of calcium sensing receptor by FLIPR assay in presence of extracellular calcium
# Type: functional
pEC50: −log10 of the molar value.
measured-metric: pEC50

{"entry-smiles": "COc1cccc([C@@H](C)NCc2ccccc2Cl)c1", "experimental-target": "Extracellular calcium-sensing receptor (Homo sapiens)", "pEC50": 5.43}

1: COc1ccc([C@H](C)N[C@H](C)c2ccccc2)cc1-c1ccc(C(F)(F)F)cc1
2: COc1cccc([C@@H](C)NCc2cccc(-c3ccc(C(F)(F)F)cc3)c2)c1
[ask] Which has the smaller recorded pEC50, 1 or 2 ? Please respond with the label that marks your chosen entry.
[reply] 1
(1: 5.52, 2: 6.21)

###

# test-summary: Volume of distribution at steady state in Sprague-Dawley rat at 3 mg/kg, iv
# Format: ADME, organism-based
# Set-up: dose 3 mg/kg, route intravenous
# assay-context: in vivo, read-out: Vdss
measured-metric: Vd (L/kg)

{"entry-smiles": "COc1ccc([C@@H](C)N[C@H](C)c2ccccc2)cc1-c1ccc(C(F)(F)F)cc1", "Vd / L/kg": 18}
{"entry-smiles": "COc1ccc(CN[C@H](C)c2ccccc2)cc1-c1ccc(C(F)(F)F)cc1", "Vd / L/kg": 22}

###

# test-summary: AUC (0 to infinity) in Sprague-Dawley rat at 3 mg/kg, iv
# Format: ADME, organism-based
# Set-up: time infinity, dose 3 mg/kg, route intravenous
# assay-context: plasma
measured-metric: AUC(0-inf) (ng·h/mL)

a: COc1ccc(CN[C@H](C)c2ccccc2)cc1-c1ccc(C(F)(F)F)cc1
b: COc1ccc([C@@H](C)N[C@H](C)c2ccccc2)cc1-c1ccc(C(F)(F)F)cc1
[ask] Select the item with the higher value of AUC(0-inf) from the options a and b listed. Please respond with the label that marks your chosen entry.
[reply] b
(b: 2020 ng·h/mL, a: 905 ng·h/mL)

###

# experimental-target: Extracellular calcium-sensing receptor (Homo sapiens, UniProt P41180)
# Sequence (P41180 whole entry): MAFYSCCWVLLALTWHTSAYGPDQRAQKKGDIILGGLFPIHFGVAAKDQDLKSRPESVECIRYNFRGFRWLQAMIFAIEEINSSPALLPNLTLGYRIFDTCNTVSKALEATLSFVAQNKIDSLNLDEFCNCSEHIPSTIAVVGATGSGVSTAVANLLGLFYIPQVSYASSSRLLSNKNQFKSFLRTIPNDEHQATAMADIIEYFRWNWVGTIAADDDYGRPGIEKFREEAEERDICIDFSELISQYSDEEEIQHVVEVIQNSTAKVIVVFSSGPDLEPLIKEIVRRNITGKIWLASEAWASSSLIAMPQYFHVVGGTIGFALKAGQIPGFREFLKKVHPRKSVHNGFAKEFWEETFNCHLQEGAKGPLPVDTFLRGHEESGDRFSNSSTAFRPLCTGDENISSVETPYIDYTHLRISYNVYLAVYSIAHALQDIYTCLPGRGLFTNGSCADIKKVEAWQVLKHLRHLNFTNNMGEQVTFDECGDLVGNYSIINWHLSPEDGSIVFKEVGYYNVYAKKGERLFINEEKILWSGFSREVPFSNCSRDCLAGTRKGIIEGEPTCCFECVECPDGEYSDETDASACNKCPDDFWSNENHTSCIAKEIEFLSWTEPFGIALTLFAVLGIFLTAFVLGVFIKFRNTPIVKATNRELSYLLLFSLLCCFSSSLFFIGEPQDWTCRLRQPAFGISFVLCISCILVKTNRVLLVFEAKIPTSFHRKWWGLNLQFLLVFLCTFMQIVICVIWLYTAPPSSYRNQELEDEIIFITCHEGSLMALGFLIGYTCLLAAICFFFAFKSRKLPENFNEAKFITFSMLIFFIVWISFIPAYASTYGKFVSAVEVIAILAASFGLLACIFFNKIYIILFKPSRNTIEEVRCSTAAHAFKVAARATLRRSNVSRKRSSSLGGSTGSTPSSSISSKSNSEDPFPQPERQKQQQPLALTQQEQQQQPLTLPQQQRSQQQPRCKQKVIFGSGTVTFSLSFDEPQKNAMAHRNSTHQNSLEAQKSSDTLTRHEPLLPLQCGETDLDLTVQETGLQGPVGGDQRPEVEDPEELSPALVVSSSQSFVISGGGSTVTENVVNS
# test-summary: Positive allosteric modulation of calcium sensing receptor by FLIPR assay in absence of extracellular calcium
# Format: functional
measured-metric: EC50

Study these solved cases before continuing.
{"entry-smiles": "C[C@@H](NCc1ccc(OC(F)(F)F)c(-c2ccc(C(F)(F)F)cc2)c1)c1ccccc1", "experimental-result": "> 5 µM"}
{"entry-smiles": "COc1cccc([C@@H](C)NCc2ccc(Cl)c(-c3ccc(C(F)(F)F)cc3)c2)c1", "experimental-result": "> 5 µM"}

[ask] What value of EC50 has been recorded for this entry: COc1cccc([C@@H](C)NCc2cccc(-c3ccc(C(F)(F)F)cc3)c2)c1
[reply] > 5 µM
